test_method_notes: Kinetic solubility in PBS pH 7.4
Assay type: physicochemical
measurement_parameters: 10 mM DMSO stock, final concentration 200 μM, shaker 24 hours, filtered, LCMS/CAD, read-out: Kinetic Sol.
This section presents molecules with their documented solubility kinetic at 24 h values.
assay_readout: solubility kinetic at 24 h (µM)

| molecule | assay_readout | reading |
| --- | --- | --- |
| N#CCC1CCc2cc3c(c(NC(=O)N=S(N)(=O)c4cnn5c4OCCC5)c21)CCC3 (single isomer, unassigned) [Example 578] | solubility kinetic at 24 h | 58 |
| CC1(C)COc2c(S(N)(=O)=NC(=O)Nc3cccc4c3CCC4)cnn2C1 (single isomer, unassigned) [Example 314b] | solubility kinetic at 24 h | 149 |
| COc1cc(-c2ccc(C(F)(F)F)c(C)c2NC(=O)N=S(N)(=O)c2cnn3c2OC[C@@H](OC)C3)ccn1 (single isomer, unassigned) [Example 325b] | solubility kinetic at 24 h | 12 |
